target: α4β1 integrin receptor (Homo sapiens, UniProt P05556+P13612); construct: Ramos Cell Adhesion Assay (α4β1 Mediated Adhesion/VCAM-1); endogenous in cells; host or cells: Ramos cells; test: Ramos Cell Adhesion Assay (α4β1 Mediated Adhesion/VCAM-1); assay type: cell-based; settings: Table III; read-out: Inhibition of Binding of Ramos Cells to Immobilized VCAM-1 IC50
Sequence (P05556 21-798, one chain of several): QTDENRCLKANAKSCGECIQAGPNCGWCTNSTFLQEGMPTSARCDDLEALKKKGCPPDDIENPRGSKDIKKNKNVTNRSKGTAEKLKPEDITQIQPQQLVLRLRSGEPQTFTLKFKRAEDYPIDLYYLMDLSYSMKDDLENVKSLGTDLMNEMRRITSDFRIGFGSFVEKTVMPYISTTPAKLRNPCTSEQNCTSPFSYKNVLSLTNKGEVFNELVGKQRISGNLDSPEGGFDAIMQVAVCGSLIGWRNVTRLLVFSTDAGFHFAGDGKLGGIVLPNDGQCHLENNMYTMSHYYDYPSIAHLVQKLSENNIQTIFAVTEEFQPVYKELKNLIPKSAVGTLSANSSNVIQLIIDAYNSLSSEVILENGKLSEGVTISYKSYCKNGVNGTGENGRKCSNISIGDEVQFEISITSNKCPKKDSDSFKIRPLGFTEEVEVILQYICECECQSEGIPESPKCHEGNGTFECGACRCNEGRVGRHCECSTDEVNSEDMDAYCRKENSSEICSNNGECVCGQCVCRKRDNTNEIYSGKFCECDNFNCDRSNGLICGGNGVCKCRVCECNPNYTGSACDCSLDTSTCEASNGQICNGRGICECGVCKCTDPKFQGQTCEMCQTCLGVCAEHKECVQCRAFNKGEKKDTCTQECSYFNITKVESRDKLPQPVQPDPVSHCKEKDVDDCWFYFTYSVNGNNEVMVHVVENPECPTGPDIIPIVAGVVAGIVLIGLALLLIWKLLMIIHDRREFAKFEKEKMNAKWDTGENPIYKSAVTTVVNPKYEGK
pIC50: −log10 of the molar value.
pIC50 of 7 or higher: True. Under 7: False.

Look over these answered cases.
Molecule | Label Class
O=C(Nc1ccc(C[C@H](NC(=O)C2C3CCC(CC3)N2S(=O)(=O)c2ccccc2)C(=O)O)cc1)C1CCNCC1 (stereo partly drawn) [Cpd 59] | False
O=C(Nc1ccc(C[C@H](NC(=O)[C@H]2C3CCC(C3)N2S(=O)(=O)c2ccccc2)C(=O)O)cc1)c1c(Cl)cccc1Cl (stereo partly drawn) [Cpd 16b] | False
Cc1ccc(S(=O)(=O)N2C3CCC(CC3)C2C(=O)N[C@@H](Cc2ccc(NC(=O)c3c(F)cccc3F)cc2)C(=O)O)cc1 (stereo partly drawn) [Cpd 11] | False

// switching to the query molecule
input: Test whether the molecule O=C(Nc1ccc(C[C@H](NC(=O)[C@@H]2C3CCC(CC3)N2S(=O)(=O)c2ccccc2)C(=O)O)cc1)c1c(Cl)cccc1Cl [Cpd 6a] records pIC50 of 7 or higher.
output: True

====

biological target: α4β1 integrin receptor (Homo sapiens, UniProt P05556+P13612); construct: Ramos Cell Adhesion Assay (α4β1 Mediated Adhesion/VCAM-1); endogenous in cells; host or cells: Ramos cells; test: Ramos Cell Adhesion Assay (α4β1 Mediated Adhesion/VCAM-1); assay type: cell-based; conditions: Table III; read-out: Inhibition of Binding of Ramos Cells to Immobilized VCAM-1 IC50
The label Criterion met is reserved for IC50 strictly under 60 nM; Criterion not met covers values equal to or above it.

Some solved entries appear below for comparison.
Compound | Label Class
O=C(Nc1ccc(C[C@H](NC(=O)[C@H]2C3CCC(C3)N2S(=O)(=O)c2ccccc2)C(=O)O)cc1)c1c(F)cccc1F (stereo partly drawn) | Criterion not met
O=C(Nc1ccc(C[C@H](NC(=O)C2C3CCC(CC3)N2S(=O)(=O)c2ccccc2)C(=O)O)cc1)c1c(Cl)cccc1Cl (mixture of isomers) | Criterion met
O=C(N[C@@H](Cc1ccc(OCc2c(Cl)cccc2Cl)cc1)C(=O)O)C1C2C=CC(CC2)N1S(=O)(=O)c1ccccc1 (stereo partly drawn) | Criterion not met
O=C(Nc1ccc(C[C@H](NC(=O)[C@@H]2C3CCC(C3)N2S(=O)(=O)c2ccccc2)C(=O)O)cc1)c1c(Cl)cccc1Cl (stereo partly drawn) [Cpd 16a] | Criterion not met
COc1cccc(OC)c1C(=O)Nc1ccc(C[C@H](NC(=O)[C@@H]2C3CCC(C3)N2S(=O)(=O)c2ccccc2)C(=O)O)cc1 (stereo partly drawn) [Cpd 19a] | Criterion not met

Now, please, on to the next compound.
input: Threshold test, IC50 < 60 nM: "Cc1ccc(S(=O)(=O)N2C3CCC(CC3)[C@H]2C(=O)N[C@@H](Cc2ccc(OCc3c(Cl)cccc3Cl)cc2)C(=O)O)cc1"
output: Criterion met

====

target: α4β1 integrin receptor (Homo sapiens, UniProt P05556+P13612); construct: Ramos Cell Adhesion Assay (α4β1 Mediated Adhesion/VCAM-1); endogenous in cells; host or cells: Ramos cells; assay: Ramos Cell Adhesion Assay (α4β1 Mediated Adhesion/VCAM-1); assay type: cell-based; settings: Table I; racemic mixtures and resolved (S,S) and (R,S) diastereomers; read-out: Antagonist IC50 Activity α4β1
Each item that follows carries a reported IC50.
Quick reminder: number only, in nM, skip the unit.

Molecule | IC50 (nM)
CC(C)(C)OC(=O)N1CCC(C(=O)Nc2ccc(C[C@H](NC(=O)[C@@H]3C4CCC(CC4)N3S(=O)(=O)c3ccccc3)C(=O)O)cc2)CC1 [Cpd 53a] | 219
O=C(Nc1ccc(C[C@H](NC(=O)[C@H]2C3CCC(CC3)N2S(=O)(=O)c2ccccc2)C(=O)O)cc1)c1c(Cl)cccc1Cl | 222
O=C(Nc1ccc(C[C@H](NC(=O)[C@@H]2C3CCC(CC3)N2S(=O)(=O)c2cccs2)C(=O)O)cc1)c1c(Cl)cncc1Cl [Cpd 71a] | 6

Turning now to a further record.
input: I am curious: what IC50 value has been reported for COc1cccc(OC)c1C(=O)Nc1ccc(C[C@H](NC(=O)[C@H]2C3CCC(C3)N2S(=O)(=O)c2ccccc2)C(=O)O)cc1 (stereo partly shown) [Cpd 19b] ?
output: 1210

====

target: human α4β7 (Homo sapiens, UniProt P13612+P26010); construct: expressed in transfected cells; test: α4β7-K562 Cell Adhesion Assay (α4β7 Mediated Adhesion/VCAM-1); format: cell-based; details: Table IV; μM; read-out: Inhibition of Binding of K562 Cells to Immobilized VCAM-1 IC50
Sequence (P13612 34-1032): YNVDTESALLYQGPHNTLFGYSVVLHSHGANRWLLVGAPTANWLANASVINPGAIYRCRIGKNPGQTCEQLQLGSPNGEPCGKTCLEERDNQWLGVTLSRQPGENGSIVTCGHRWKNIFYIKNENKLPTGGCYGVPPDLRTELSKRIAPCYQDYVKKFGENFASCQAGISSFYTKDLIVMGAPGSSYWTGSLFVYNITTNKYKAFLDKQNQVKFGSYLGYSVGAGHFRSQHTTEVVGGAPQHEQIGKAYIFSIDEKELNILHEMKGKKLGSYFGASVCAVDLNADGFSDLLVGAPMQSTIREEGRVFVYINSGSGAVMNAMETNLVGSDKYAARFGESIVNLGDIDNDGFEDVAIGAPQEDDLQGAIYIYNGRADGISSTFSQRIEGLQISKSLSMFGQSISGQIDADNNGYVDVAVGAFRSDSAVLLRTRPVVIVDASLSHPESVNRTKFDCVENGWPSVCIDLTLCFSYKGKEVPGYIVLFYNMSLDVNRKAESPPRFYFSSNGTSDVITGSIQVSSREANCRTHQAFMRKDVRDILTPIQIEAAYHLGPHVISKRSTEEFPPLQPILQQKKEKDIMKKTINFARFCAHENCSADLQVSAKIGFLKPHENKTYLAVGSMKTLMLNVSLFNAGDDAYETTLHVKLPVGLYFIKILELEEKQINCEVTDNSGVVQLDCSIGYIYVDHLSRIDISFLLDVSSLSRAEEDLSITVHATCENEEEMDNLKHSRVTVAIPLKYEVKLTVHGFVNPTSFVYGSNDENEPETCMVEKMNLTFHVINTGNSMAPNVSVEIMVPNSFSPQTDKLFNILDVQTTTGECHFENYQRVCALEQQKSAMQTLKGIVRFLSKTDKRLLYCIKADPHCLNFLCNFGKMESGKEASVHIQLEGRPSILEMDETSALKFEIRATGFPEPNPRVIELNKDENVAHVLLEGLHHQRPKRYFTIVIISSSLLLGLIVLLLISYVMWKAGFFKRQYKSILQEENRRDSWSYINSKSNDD
Sequence (P26010 20-798): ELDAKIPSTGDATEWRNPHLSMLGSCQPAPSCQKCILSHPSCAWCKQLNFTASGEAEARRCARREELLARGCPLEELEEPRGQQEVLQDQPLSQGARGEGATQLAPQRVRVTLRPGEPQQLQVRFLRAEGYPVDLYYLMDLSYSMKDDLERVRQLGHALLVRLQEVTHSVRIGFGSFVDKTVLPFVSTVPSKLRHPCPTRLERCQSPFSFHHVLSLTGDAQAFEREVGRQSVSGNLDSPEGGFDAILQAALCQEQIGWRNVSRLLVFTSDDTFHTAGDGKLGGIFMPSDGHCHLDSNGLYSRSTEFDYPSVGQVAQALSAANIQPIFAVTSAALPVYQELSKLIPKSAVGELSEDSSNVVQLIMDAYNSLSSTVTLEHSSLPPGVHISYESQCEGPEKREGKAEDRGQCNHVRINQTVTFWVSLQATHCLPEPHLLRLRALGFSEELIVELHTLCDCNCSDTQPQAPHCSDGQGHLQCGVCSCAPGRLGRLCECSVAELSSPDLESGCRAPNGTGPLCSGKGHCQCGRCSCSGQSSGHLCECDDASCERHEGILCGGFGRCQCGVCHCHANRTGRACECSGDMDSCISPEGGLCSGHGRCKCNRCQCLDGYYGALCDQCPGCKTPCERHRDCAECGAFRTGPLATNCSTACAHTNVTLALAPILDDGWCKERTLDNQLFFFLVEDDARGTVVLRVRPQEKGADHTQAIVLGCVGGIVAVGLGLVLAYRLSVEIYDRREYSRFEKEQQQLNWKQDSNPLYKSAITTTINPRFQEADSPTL
Measurement Kind: IC50

Compound | System Tested | Value Measured
O=C(O)c1ccccc1C(=O)Nc1ccc(C[C@H](NC(=O)[C@@H]2C3CCC(CC3)N2S(=O)(=O)c2ccccc2)C(=O)O)cc1 | human α4β7 (Homo sapiens, UniProt P13612+P26010) | > 10 µM
CC(C)N(C(=O)Oc1ccc(C[C@H](NC(=O)C2C3CCC(CC3)N2S(=O)(=O)c2ccccc2)C(=O)O)cc1)C(C)C (stereo partly drawn) | human α4β7 (Homo sapiens, UniProt P13612+P26010) | > 5 µM

# ---- query compound ----
input: Look at this compound and give its reported IC50. Cc1ccc(S(=O)(=O)N2C3CCC(CC3)C2C(=O)N[C@@H](Cc2ccc(NC(=O)c3ccccc3OC(F)(F)F)cc2)C(=O)O)cc1 (stereo partly drawn)
output: > 10 µM

====

biological target: α4β1 integrin receptor (Homo sapiens, UniProt P05556+P13612); construct: Ramos Cell Adhesion Assay (α4β1 Mediated Adhesion/VCAM-1); endogenous in cells; host or cells: Ramos cells; experiment: Ramos Cell Adhesion Assay (α4β1 Mediated Adhesion/VCAM-1); assay type: cell-based; conditions: Table III; read-out: Inhibition of Binding of Ramos Cells to Immobilized VCAM-1 IC50
Below: a set of entries, each annotated with reported pIC50.
Remember, pIC50 is on a log scale: it is -log10 of the molar concentration.

Compound | Measurement Kind | Value Measured
O=C(Nc1ccc(C[C@H](NC(=O)[C@@H]2C3CCC(CC3)N2S(=O)(=O)c2ccccc2)C(=O)O)cc1)c1c(Cl)cncc1Cl | pIC50 | 8.05
Cc1ccc(S(=O)(=O)N2C3CCC(CC3)C2C(=O)N[C@@H](Cc2ccc(NC(=O)c3ccccc3OC(F)(F)F)cc2)C(=O)O)cc1 (some centres unmarked) | pIC50 | 6.92
CCOc1ccc2ccccc2c1C(=O)Nc1ccc(C[C@H](NC(=O)[C@@H]2C3CCC(CC3)N2S(=O)(=O)c2ccccc2)C(=O)O)cc1 | pIC50 | 6.71
Cc1ccc(S(=O)(=O)N2C3CCC(CC3)C2C(=O)N[C@@H](Cc2ccc(C#Cc3ccccc3)cc2)C(=O)O)cc1 (some centres unmarked) | pIC50 | 5.96
COc1cccc(OC)c1-c1ccc(C[C@H](NC(=O)[C@H]2C3CCC(CC3)N2S(=O)(=O)c2ccc(C)cc2)C(=O)O)cc1 [Cpd 18a] | pIC50 | 6.07
O=C(N[C@@H](Cc1ccc(NS(=O)(=O)c2c(Cl)cccc2Cl)cc1)C(=O)O)C1C2CCC(CC2)N1S(=O)(=O)c1ccccc1 (some centres unmarked) | pIC50 | 6.11

input: Can you share its pIC50? I mean this compound: Cc1ccc(S(=O)(=O)N2C3CCC(CC3)C2C(=O)N[C@@H](Cc2ccc(NC(=O)c3ccccc3)cc2)C(=O)O)cc1 (some centres unmarked)
output: 6.04

input: Which pIC50 is listed for "O=C(O)[C@H](Cc1ccc(NC(=O)[C@@H]2C3CCC(CC3)N2S(=O)(=O)c2ccccc2)cc1)NC(=O)[C@@H]1C2CCC(CC2)N1S(=O)(=O)c1ccccc1" ?
output: 6.43

====

Measured pIC50 by item
molecular target: α4β1 integrin receptor (Homo sapiens, UniProt P05556+P13612); construct: Ramos Cell Adhesion Assay (α4β1 Mediated Adhesion/VCAM-1); endogenous in cells; host or cells: Ramos cells; assay: Ramos Cell Adhesion Assay (α4β1 Mediated Adhesion/VCAM-1); format: cell-based; conditions: Table III; read-out: Inhibition of Binding of Ramos Cells to Immobilized VCAM-1 IC50
Interpret pIC50 as the negative base-10 log of the concentration measured in mol/L.

Below are worked cases with known answers.
Molecule | pIC50
COc1cccc(OC)c1-c1ccc(C[C@H](NC(=O)[C@@H]2C3CCC(CC3)N2S(=O)(=O)c2ccccc2)C(=O)O)cc1 | 7.09
O=C(Nc1ccc(C[C@H](NC(=O)C2C3CCC(CC3)N2S(=O)(=O)c2ccccc2)C(=O)O)cc1)c1c(F)c(F)cc(F)c1F (stereo partly drawn) | 6.51

input: Look at this molecule and give its reported pIC50. "CC(C)C(=O)Nc1ccc(C[C@H](NC(=O)[C@@H]2C3CCC(CC3)N2S(=O)(=O)c2ccccc2)C(=O)O)cc1"
output: 6.34

Values were extracted from patent US6960597B2.
